test system: Escherichia coli; test: minimum inhibitory concentration (MIC); settings: isolate (source animal id): 168
A collection of compounds and their measured minimum inhibitory concentration
Kindly answer with a numeric value in mg/L, unit omitted.

Study these solved cases before continuing.
INSERT INTO assay_data (smi, recordednumber) VALUES
  ('C=C[C@]1(C)C[C@@H](OC(=O)CSCCN(CC)CC)[C@]2(C)[C@H](C)CC[C@]3(CCC(=O)[C@H]32)[C@@H](C)[C@@H]1O', 32),
  ('CC[C@H]1OC(=O)C[C@@H](O)[C@H](C)[C@@H](O[C@@H]2O[C@H](C)[C@@H](O)[C@H](N(C)C)[C@H]2O)[C@@H](CCN2CCCCC2)C[C@@H](C)C(=O)/C=C/C(C)=C/[C@@H]1CN1CCCCC1', 4),
  ('CS(=O)(=O)c1ccc([C@@H](O)[C@@H](CF)NC(=O)C(Cl)Cl)cc1', 2);

Next compound, please.
Task: Given the compound `CC1(C)S[C@@H]2[C@H](NC(=O)[C@H](N)c3ccccc3)C(=O)N2[C@H]1C(=O)O` , what is its reported minimum inhibitory concentration?
Output: 2

----------
tested on: Pasteurella multocida; test: minimum inhibitory concentration (MIC); details: isolate (source animal id): 26
minimum inhibitory concentration values for the compounds below.

Study these solved cases before continuing.
INSERT INTO results (compound, result) VALUES
  ('CCC[C@@H]1C[C@@H](C(=O)N[C@@H]([C@H]2O[C@H](SC)[C@H](O)[C@@H](O)[C@H]2O)[C@H](C)Cl)N(C)C1 [Clindamycin]', '> 16 µg/mL'),
  ('CCCNC[C@]1(O)[C@H](C)O[C@@H](O[C@H]2[C@H](C)[C@@H](O[C@@H]3O[C@H](C)C[C@H](N(C)C)[C@H]3O)[C@](C)(O)C[C@@H](C)CN[C@H](C)[C@@H](O)[C@](C)(O)[C@@H](CC)OC(=O)[C@@H]2C)C[C@@]1(C)OC [Tulathromycin]', '≤ 8 µg/mL'),
  ('CCN1CCN(c2cc3c(cc2F)c(=O)c(C(=O)O)cn3C2CC2)CC1 [Enrofloxacin]', '2 µg/mL');

Next:
Task: I would be grateful if you could share the reported minimum inhibitory concentration for CO/N=C(\C(=O)N[C@@H]1C(=O)N2C(C(=O)O)=C(CSC(=O)c3ccco3)CS[C@H]12)c1csc(N)n1 [Ceftiofur] .
Output: ≤ 0.25 µg/mL

----------
tested on: Pasteurella multocida; assay: minimum inhibitory concentration (MIC); conditions: isolate (source animal id): 258
Listed here: items and their measured minimum inhibitory concentration.

INSERT INTO results (molecule, result) VALUES
  ('CCCN1C[C@H](C)[C@@H](O)[C@](C)(O)[C@@H](CC)OC(=O)[C@H](C)[C@@H](O[C@H]2C[C@@](C)(OC)[C@@H](O)[C@H](C)O2)[C@H](C)[C@@H](O[C@@H]2O[C@H](C)C[C@H](N(C)C)[C@H]2O)[C@](C)(O)C[C@H]1C [Gamithromycin]', '≤ 1 µg/mL');

Here is another molecule to look at.
Task: Query: minimum inhibitory concentration; subject: CCCNC[C@]1(O)[C@H](C)O[C@@H](O[C@H]2[C@H](C)[C@@H](O[C@@H]3O[C@H](C)C[C@H](N(C)C)[C@H]3O)[C@](C)(O)C[C@@H](C)CN[C@H](C)[C@@H](O)[C@](C)(O)[C@@H](CC)OC(=O)[C@@H]2C)C[C@@]1(C)OC [Tulathromycin]
Output: ≤ 8 µg/mL
